experimentalSystem: HIS-TGF-βR1 T204D (Homo sapiens (Human), UniProt P36897, T204D)
Sequence (P36897 34-503 T204D): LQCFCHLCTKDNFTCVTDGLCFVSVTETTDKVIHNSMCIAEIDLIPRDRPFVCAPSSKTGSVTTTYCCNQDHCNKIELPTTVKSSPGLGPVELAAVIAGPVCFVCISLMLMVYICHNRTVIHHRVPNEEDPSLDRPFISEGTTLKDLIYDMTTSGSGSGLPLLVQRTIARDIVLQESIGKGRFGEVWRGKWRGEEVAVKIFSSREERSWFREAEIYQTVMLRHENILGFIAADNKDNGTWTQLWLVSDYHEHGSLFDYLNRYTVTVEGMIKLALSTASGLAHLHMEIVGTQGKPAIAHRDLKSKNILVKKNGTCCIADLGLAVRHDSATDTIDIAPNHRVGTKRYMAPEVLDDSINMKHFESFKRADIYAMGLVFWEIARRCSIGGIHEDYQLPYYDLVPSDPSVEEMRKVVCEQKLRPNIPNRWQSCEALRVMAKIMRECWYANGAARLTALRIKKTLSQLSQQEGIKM
experimentalProtocol: HTRF probe displacement assay with HIS-TGF-βR1 T204D
condition: read-out: TGFbr1 IC50; HTRF probe displacement, 1 nM HIS-TGF-βR1 T204D, 1 hour at room temperature
Parameter: log10 of IC50. Scope: all listed entries.
Quick note: numbers are log10 of IC50, with nM as the unit.

>>> measuredresult("NC(=O)c1cnc2ccc(-c3c(-c4ccc(F)cc4)ncn3C[C@@H](O)CO)cn12 [164′]")
0.76

Briefly, log10 of IC50 measured for N#Cc1cnc2ccc(-c3c(-c4ccccc4)ncn3CC(F)F)nn12 [237′] : 0.46

For record CS(=O)(=O)c1cccc(-c2ncn(CC(F)F)c2-c2ccc3ncc(C#N)n3n2)c1 [254′] the listed log10 of IC50 is 2.88

The compound listed as CC(F)(F)Cn1cnc(-c2ccc(F)c(Cl)c2)c1-c1ccc2ncc(C(N)=O)n2n1 [151′] has a reported log10 of IC50 of -0.22

The compound listed as C[C@@H](O)Cn1cnc(-c2ccc(F)cc2)c1-c1ccc2ncc(C#N)n2c1 [68′] shows log10 of IC50 equal to 2.48

The compound listed as CC(=O)Nc1cnc2ccc(-c3c(-c4ccc(F)cc4)ncn3CC(F)F)nn12 [Example 212′] has a reported log10 of IC50 of 0.97

----------
experimentalSystem: HIS-TGF-βR1 T204D (Homo sapiens (Human), UniProt P36897, T204D)
experimentalProtocol: HTRF probe displacement assay with HIS-TGF-βR1 T204D
condition: read-out: TGFbr1 IC50; HTRF probe displacement, 1 nM HIS-TGF-βR1 T204D, 1 hour at room temperature
Item-by-item account of IC50
Use nM as the unit, but write only the number.

>>> measuredresult("CN(C)C(=O)c1cnc2ccc(-c3c(-c4ccc(F)cc4)ncn3CC(F)F)nn12 [207′]")
3
>>> measuredresult("CC(C)n1cnc(-c2ccc(F)cc2)c1-c1ccc2ncc(C(N)=O)n2n1 [135′]")
0.7
>>> measuredresult("NC(=O)c1cnc2ccc(-c3c(-c4ccc(F)cc4)nc4n3CCC4)cn12 [Example 283′]")
0.9

Measured IC50 (HIS-TGF-βR1 T204D (Homo sapiens (Human), UniProt P36897, T204D)), entry CC(C)(O)Cn1cnc(-c2ccc(F)cc2)c1-c1ccc2ncc(C#N)n2n1 [26′] : 92.6

Field IC50 (HIS-TGF-βR1 T204D (Homo sapiens (Human), UniProt P36897, T204D)), entry Nc1cnc2ccc(-c3c(-c4ccc(F)cc4)ncn3CC(F)F)cn12 [284D′] : 1.2

Query NC(=O)c1cnc2ccc(-c3c(-c4ccc(F)c(F)c4)ncn3CC(F)F)cn12 [232′] on HIS-TGF-βR1 T204D (Homo sapiens (Human), UniProt P36897, T204D); IC50 returned: 1.8

Param item: CC(C)n1cnc(-c2ccc(F)cc2)c1-c1ccc2ncc(C#N)n2c1 [79′] ; param system: HIS-TGF-βR1 T204D (Homo sapiens (Human), UniProt P36897, T204D); output IC50: 55.3

# IC50 measured on HIS-TGF-βR1 T204D (Homo sapiens (Human), UniProt P36897, T204D) for item N#Cc1cnc2ccc(-c3c(-c4ccc(F)cc4)ncn3C3CC3)nn12 [7′] = 2.4

Lab entry: HIS-TGF-βR1 T204D (Homo sapiens (Human), UniProt P36897, T204D) assay, compound NC(=O)c1cnc2ccc(-c3c(-c4ccc(F)cc4)ncn3CC(F)F)cn12 [230′] , IC50 = 1.7

Entry CC(C)(O)c1cnc2ccc(-c3c(-c4ccc(F)cc4)ncn3CC(F)F)nn12 [Example 204′] under HIS-TGF-βR1 T204D (Homo sapiens (Human), UniProt P36897, T204D) had IC50 of 1.2

Test item N#Cc1cnc2ccc(-c3c(-c4ccc(F)cc4)ncn3CCCF)cn12 [84′] ; HIS-TGF-βR1 T204D (Homo sapiens (Human), UniProt P36897, T204D); reported IC50 was 121

Source: patent US9884868B2
